system_tested: cytochrome P450 2C9 (Homo sapiens, UniProt P11712)
Sequence (P11712 whole entry): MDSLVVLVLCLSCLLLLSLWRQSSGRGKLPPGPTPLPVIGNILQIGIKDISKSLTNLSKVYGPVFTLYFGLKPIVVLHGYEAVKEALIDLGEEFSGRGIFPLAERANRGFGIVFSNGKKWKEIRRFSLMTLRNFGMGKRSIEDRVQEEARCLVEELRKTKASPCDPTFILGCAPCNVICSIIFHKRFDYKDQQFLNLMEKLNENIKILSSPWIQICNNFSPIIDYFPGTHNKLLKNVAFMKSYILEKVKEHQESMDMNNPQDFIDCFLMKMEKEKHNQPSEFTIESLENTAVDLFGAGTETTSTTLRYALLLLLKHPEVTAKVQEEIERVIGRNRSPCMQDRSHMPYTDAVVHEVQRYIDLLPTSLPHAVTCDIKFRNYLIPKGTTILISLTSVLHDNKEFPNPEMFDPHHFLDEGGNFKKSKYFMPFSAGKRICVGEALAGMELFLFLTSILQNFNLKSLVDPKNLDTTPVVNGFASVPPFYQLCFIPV
experiment_description: Determining the cyp2C9 activity (O-demethylation of [O-methyl-14C]-naproxen)
assay_conditions: human recombinant cytochrome P450 2C9; 37° C.; <0.4 μM when inhibition >50% at lowest concentration; read-out: CYP 2C9 IC50
Please note: IC50 exactly at 2000 nM is N. Only values below 2000 nM get Y.

CCN(CC)Cc1cc(C(C)(C)C)cc(NC(=O)c2cc3cccc(CN4CCN(C(=O)[C@@H]5CCCN5C)CC4)c3n2C)c1OC [9(2)] = N
COc1c(NC(=O)c2cc3cccc(CN4CCN(C(=O)[C@@H]5CCCN5C)CC4)c3n2C)cc(C(C)(C)C)cc1S(C)(=O)=O [11(4)] = Y

In the record for COc1c(NC(=O)c2cc3cccc(CN4CCN(C(=O)C5CCN5C)CC4)c3n2C)cc(C(C)(C)C)cc1NS(C)(=O)=O (stereo not shown) [1(5)] , is IC50 less than 2000 nM? Y

Now the same for COc1c(NC(=O)c2cc3cccc(CN4CCN(C(=O)[C@@H]5CCCN5C)CC4)c3n2C)cc(C(C)(C)C)cc1NS(C)(=O)=O [1(1)] N

Now the same for COc1c(NC(=O)c2cc3cccc(CN4CCN(C(=O)[C@@H]5CCCN5C)CC4)c3n2C)cc(C(F)(F)F)cc1NS(C)(=O)=O [14(1)] N

Now the same for COc1c(NC(=O)c2cc3cccc(CN4CCN(C(=O)CN5CC[C@H](N(C)C)C5)CC4)c3n2C)cc(C(C)(C)C)cc1NS(C)(=O)=O [6(3)] N

Now the same for COc1c(NC(=O)c2cc3cccc(CN4CCN(C(=O)CN5CC[C@H](O)C5)CC4)c3n2C)cc(C(C)(C)C)cc1NS(C)(=O)=O [1(15)] Y

====

system_tested: UniProtKB Q16539
experiment_description: p38 MAP-kinase enzymatic assay (phosphorylation of GST-tagged ATF2, chemoluminescence)
Assay type: biochemical
assay_conditions: inhibitor concentration 1 μM; activated p38 MAP-kinase 1 nM; ATP 100 μM; read-out: p38 (% Inh @ 1 μM)
quantity_name: inhibition at 1 µM
Number first, unit second: that is the form wanted.

// known answers, use as guide
CN1CCC[C@H]1C(=O)N1CCN(Cc2cccc3cc(C(=O)Nc4cccc(N5CCOCC5)c4)n(C)c23)CC1 = 35.4%
COc1c(NC(=O)c2cc3cccc(CN4CCC(C(=O)N5CC[C@@H](N(C)C)C5)CC4)c3n2C)cc(C(C)(C)C)cc1NS(C)(=O)=O = 54.2%
COc1c(NC(=O)c2cc3cccc(CC4CCCN(C(=O)[C@H]5CCCN5C)CC4)c3n2C)cc(C(C)(C)C)cc1NS(C)(=O)=O (stereo partly shown) = 99.1%

Shift focus to the following entry.
Can you look up the measured inhibition at 1 µM of COc1c(NC(=O)c2cc3cccc(CN4CCN(C(=O)[C@H]5C[C@@H](O)CN5C)CC4)c3n2C)cc(C(C)(C)C)cc1NS(C)(=O)=O for me? 99.6%

====

system_tested: p38 MAP-kinase (Homo sapiens, UniProt Q16539)
Sequence (Q16539 whole entry): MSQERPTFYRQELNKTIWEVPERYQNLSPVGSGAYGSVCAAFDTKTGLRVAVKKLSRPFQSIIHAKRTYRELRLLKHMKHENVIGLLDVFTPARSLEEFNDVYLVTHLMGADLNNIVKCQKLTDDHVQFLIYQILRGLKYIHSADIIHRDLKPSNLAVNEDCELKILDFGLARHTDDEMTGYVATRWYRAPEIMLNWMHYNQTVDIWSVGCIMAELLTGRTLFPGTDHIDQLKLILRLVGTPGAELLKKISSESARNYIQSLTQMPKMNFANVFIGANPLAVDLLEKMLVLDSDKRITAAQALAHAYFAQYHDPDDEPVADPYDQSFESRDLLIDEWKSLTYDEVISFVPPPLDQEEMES
experiment_description: p38 MAP-kinase enzymatic assay (phosphorylation of GST-tagged ATF2, chemoluminescence)
Format: biochemical
assay_conditions: inhibitor concentration 1 μM; activated p38 MAP-kinase 1 nM; ATP 100 μM; read-out: p38 (% Inh @ 1 μM)
In this section, each of the compounds is paired with its reported inhibition at 1 µM.
Provide the reading as a plain figure in %.

// known answers, use as guide
CCCC(=O)Nc1cc(C(C)(C)C)cc(NC(=O)c2cc3cccc(CN4CCN(C(=O)[C@@H]5CCCN5C)CC4)c3n2C)c1OC = 87.7
COc1c(NC(=O)c2cc3cccc(CN4CCN(C(=O)[C@@H]5CCCN5C)CC4)c3n2C)cc(C(F)(F)C(F)(F)F)cc1NS(C)(=O)=O = 98.8

Can you look up the measured inhibition at 1 µM of COc1c(NC(=O)c2cc3cccc(CN4CCN(C(=O)CN5CC[C@H](N(C)C)C5)CC4)c3n2C)cc(C(C)(C)C)cc1NS(C)(=O)=O for me? 98.5
